# Test system: ovarian cancer (1A9)
# Assay remarks: in vitro cytotoxicity assay, 1A9
# Condition: read-out: Cytotoxicity (ED50) 1A9 (OVCAR); 1A9 (OVCAR); drug exposure 3 days
pEC50: −log10 of the molar value.
This section presents compounds with their documented pEC50 values.
Measured property: pEC50

compound="COc1cc([C@@H]2c3cc4c(cc3[C@@H](Nc3ccc([N+](=O)[O-])cc3)[C@H]3COC(=O)[C@H]23)OCO4)cc(OC)c1O [GL-331, reference compound]" measured_property=pEC50 observed_result=6.70
compound=C/C=C(\C)C(=O)N[C@@H](c1ccccc1)[C@@H](OC(=O)c1ccc(C=N[C@@H]2c3cc4c(cc3[C@@H](c3cc(OC)c(O)c(OC)c3)[C@H]3C(=O)OC[C@@H]32)OCO4)cc1)C(=O)O[C@H]1C[C@@]2(O)[C@@H](OC(=O)c3ccccc3)[C@@H]3[C@]4(OC(C)=O)CO[C@@H]4C[C@H](O)[C@@]3(C)C(=O)[C@H](OC(C)=O)C(=C1C)C2(C)C measured_property=pEC50 observed_result=6.85
compound=C/C=C(\C)C(=O)N[C@@H](c1ccccc1)[C@@H](OC(=O)c1ccc(C=Nc2ccc(N[C@@H]3c4cc5c(cc4[C@@H](c4cc(OC)c(O)c(OC)c4)[C@H]4C(=O)OC[C@@H]43)OCO5)cc2)cc1)C(=O)O[C@H]1C[C@@]2(O)[C@@H](OC(=O)c3ccccc3)[C@@H]3[C@]4(OC(C)=O)CO[C@@H]4C[C@H](O)[C@@]3(C)C(=O)[C@H](OC(C)=O)C(=C1C)C2(C)C measured_property=pEC50 observed_result=5.95
compound=COc1cc([C@@H]2c3cc4c(cc3[C@@H](N=Cc3ccc(C(=O)O[C@@H](C(=O)O[C@H]5C[C@@]6(O)[C@@H](OC(=O)c7ccccc7)[C@@H]7[C@]8(OC(C)=O)CO[C@@H]8C[C@H](O)[C@@]7(C)C(=O)[C@H](OC(C)=O)C(=C5C)C6(C)C)[C@@H](NC(=O)c5ccccc5)c5ccccc5)cc3)[C@H]3COC(=O)[C@H]23)OCO4)cc(OC)c1O measured_property=pEC50 observed_result=7.52
compound=COc1cc([C@@H]2c3cc4c(cc3[C@@H](Nc3ccc(N=Cc5ccc(C(=O)O[C@@H](C(=O)O[C@H]6C[C@@]7(O)[C@@H](OC(=O)c8ccccc8)[C@@H]8[C@]9(OC(C)=O)CO[C@@H]9C[C@H](O)[C@@]8(C)C(=O)[C@H](OC(C)=O)C(=C6C)C7(C)C)[C@@H](NC(=O)c6ccccc6)c6ccccc6)cc5)cc3)[C@H]3COC(=O)[C@H]23)OCO4)cc(OC)c1O measured_property=pEC50 observed_result=6.52
